TEST_TARGET: Peroxisome proliferator-activated receptor alpha (Homo sapiens, UniProt Q07869)
TEST_DETAILS: Activation of human PPARalpha by GST pull down assay
pEC50: −log10 of the molar value.
MEASUREMENT_TYPE: pEC50

Below are worked cases with known answers.
>>> print(df.to_string())
                                   compound  measured_number
0  CCCCCCCC/C=C\CCCCCCCC(=O)NCCO [OLEOYLETHANOLAMIDE]             6.96
1          CCCCCCCCCCCCCCCCCCNS(=O)(=O)NCCC             7.00
2       CCCCCCCC/C=C\CCCCCCCCNS(=O)(=O)NCCC             4.96

A. CCCCCCCCCCCCCCCCNS(=O)(=O)NCCC
B. CCCCCCCC/C=C\CCCCCCCCNS(N)(=O)=O
INPUT: // pick min by pEC50: A , B Bench note: the answer is the label of the chosen record.
OUTPUT: A
(A: 4.68, B: 6.28)

* * *

TEST_TARGET: Peroxisome proliferator-activated receptor alpha (Homo sapiens) (UniProt Q07869)
Sequence (whole entry): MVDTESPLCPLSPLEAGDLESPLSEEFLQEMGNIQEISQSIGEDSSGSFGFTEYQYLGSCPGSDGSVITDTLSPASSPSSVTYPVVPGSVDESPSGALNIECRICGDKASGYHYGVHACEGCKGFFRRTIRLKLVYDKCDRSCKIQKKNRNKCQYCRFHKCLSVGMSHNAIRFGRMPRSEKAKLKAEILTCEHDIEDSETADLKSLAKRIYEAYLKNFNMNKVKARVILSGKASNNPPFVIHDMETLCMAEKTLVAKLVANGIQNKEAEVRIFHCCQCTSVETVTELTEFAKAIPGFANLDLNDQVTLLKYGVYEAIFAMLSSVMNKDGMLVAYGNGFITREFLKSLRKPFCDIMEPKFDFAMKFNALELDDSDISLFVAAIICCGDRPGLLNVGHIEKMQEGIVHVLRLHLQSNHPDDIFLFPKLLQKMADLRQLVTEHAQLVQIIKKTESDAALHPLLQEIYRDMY
TEST_DETAILS: Agonist activity at human PPARalpha expressed in MCF7 cells transfected with co-activator TIF2 by luciferase reporter gene assay at 1 uM
Assay type: functional, cell-based
Calls of active or inactive are those of the source. The calls are words filed in the database; no cut-off is given here.
Use one of these outcomes when replying: Yes (active), No (inactive)

The following compounds have reported results that may help.
                              compound                               test_target  assigned_label
0  Cc1cccc(Nc2cc(Cl)nc(SCC(=O)O)n2)c1C  Peroxisome proliferator-activated receptor alpha (Homo sapiens) (UniProt Q07869)             Yes
1     CCCCCCCCCCCCCCCCCCNS(=O)(=O)NCCC  Peroxisome proliferator-activated receptor alpha (Homo sapiens) (UniProt Q07869)             Yes
2        CCCCCCCCCCCCCCCCCCNS(N)(=O)=O  Peroxisome proliferator-activated receptor alpha (Homo sapiens) (UniProt Q07869)              No

Switching to the query record.
INPUT: Tell me the recorded outcome of this test for CCCCCCCC/C=C\CCCCCCCC(=O)NCCO [OLEOYLETHANOLAMIDE] .
OUTPUT: Yes
